Assayed system: T1, human IL-23 (IL-23-His-Biotin) (human, UniProt Q9NPF7 20-189; P29460 23-328, biotin label, site not stated)
T1 construct: Akesobio lot 20161209; His-tagged and biotinylated
T1 sequence (looked up) 1: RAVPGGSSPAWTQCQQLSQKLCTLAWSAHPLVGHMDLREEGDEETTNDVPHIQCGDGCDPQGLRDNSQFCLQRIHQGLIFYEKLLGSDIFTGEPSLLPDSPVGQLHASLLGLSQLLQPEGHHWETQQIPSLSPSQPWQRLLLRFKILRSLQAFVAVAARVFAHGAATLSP
T1 sequence (looked up) 2: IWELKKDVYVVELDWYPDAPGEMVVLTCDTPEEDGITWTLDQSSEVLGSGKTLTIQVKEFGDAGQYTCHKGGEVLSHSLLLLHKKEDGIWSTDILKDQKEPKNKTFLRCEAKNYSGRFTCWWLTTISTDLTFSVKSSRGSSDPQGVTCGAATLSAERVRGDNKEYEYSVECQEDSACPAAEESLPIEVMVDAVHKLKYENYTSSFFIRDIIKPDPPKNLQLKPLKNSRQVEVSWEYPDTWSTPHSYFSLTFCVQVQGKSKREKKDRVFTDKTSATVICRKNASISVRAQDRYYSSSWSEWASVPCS
Experiment: FACS competition, IL-23-His-Biotin 2 µg/mL on 293T-IL-12Rβ1&IL-23R cells; antibody 0.12 µg/mL
Recorded MFI for the following binders

>  <Binder>
H5L12 (antibody, human IgG1, kappa, V domains shown, human IgG1 / kappa constant regions; also called humanized antibody H5L12) VH: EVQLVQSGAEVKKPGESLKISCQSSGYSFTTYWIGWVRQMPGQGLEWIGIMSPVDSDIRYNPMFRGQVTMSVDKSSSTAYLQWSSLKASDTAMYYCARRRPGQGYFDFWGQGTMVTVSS VL: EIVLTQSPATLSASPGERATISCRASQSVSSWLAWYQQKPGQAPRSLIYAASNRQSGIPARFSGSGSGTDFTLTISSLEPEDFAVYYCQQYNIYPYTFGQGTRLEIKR

>  <MFI [MFI]>
211

$$$$
>  <Binder>
H5L10 (antibody, human IgG1, kappa, V domains shown, human IgG1 / kappa constant regions; also called humanized antibody H5L10) VH: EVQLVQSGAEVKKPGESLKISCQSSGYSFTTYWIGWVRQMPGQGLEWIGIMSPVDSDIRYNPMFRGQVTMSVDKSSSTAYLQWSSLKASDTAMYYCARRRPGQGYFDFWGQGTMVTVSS VL: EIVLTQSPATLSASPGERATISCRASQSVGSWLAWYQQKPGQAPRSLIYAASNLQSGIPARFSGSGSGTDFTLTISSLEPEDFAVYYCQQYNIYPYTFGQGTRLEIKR

>  <MFI [MFI]>
221

$$$$
>  <Binder>
H5L9 (antibody, human IgG1, kappa, V domains shown, human IgG1 (P01857) / kappa (P01834) constant regions; also called humanized antibody H5L9) VH: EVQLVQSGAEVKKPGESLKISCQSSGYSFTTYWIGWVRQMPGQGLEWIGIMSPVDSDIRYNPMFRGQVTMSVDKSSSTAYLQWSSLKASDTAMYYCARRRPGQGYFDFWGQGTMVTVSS VL: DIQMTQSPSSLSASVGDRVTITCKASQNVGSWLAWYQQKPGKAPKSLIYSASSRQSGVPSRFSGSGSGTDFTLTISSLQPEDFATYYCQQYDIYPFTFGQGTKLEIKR

>  <MFI [MFI]>
217

$$$$
>  <Binder>
H5L11 (antibody, human IgG1, kappa, V domains shown, human IgG1 / kappa constant regions; also called humanized antibody H5L11) VH: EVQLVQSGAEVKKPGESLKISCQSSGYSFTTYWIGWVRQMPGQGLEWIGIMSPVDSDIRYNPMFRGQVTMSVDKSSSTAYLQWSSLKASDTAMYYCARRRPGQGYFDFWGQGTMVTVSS VL: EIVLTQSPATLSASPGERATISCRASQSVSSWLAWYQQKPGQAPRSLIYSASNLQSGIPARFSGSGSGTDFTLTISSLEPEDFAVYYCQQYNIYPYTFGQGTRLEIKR

>  <MFI [MFI]>
219

$$$$
>  <Binder>
H5L14 (antibody, human IgG1, kappa, V domains shown, human IgG1 / kappa constant regions; also called humanized antibody H5L14) VH: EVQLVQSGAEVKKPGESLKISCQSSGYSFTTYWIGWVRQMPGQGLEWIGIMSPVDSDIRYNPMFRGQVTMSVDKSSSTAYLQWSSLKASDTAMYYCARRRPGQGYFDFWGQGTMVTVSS VL: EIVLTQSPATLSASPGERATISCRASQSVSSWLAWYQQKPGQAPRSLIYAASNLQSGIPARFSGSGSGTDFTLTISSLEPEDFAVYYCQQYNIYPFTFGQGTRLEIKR

>  <MFI [MFI]>
203

$$$$
>  <Binder>
ustekinumab (antibody, V domains shown) VH: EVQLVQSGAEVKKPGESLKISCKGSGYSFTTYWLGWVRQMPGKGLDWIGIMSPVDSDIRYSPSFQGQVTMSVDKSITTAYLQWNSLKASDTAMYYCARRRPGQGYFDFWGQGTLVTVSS VL: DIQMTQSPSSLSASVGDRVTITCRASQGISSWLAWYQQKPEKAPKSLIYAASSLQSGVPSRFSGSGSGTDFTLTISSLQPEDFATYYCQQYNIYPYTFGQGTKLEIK

>  <MFI [MFI]>
211

$$$$

Value source: patent US20220298235A1
